Reference source: ChEMBL document CHEMBL1201862

- Tested on: CAKI-1
- Measurement notes: NCI tumour cell line growth inhibition, 48 h
Activity calls are given as the source filed them. Cut-off read from the data, not from the text of the source: active = GI50 up to about 1.1 µM and inactive = higher.
Give one outcome, nothing more. List: Yes (active), No (inactive)

Task: State the result this test recorded for C1OCN2c3nonc3N3COCN4c5nonc5N1C2C43 (stereo unspecified) .
Output: No

Task: State the result this test recorded for CC(=O)NC(Cc1ccsc1)C(=O)O (stereo unspecified) .
Output: No

Task: State the result this test recorded for `O=Cc1cc2sc(C=O)cc2s1` .
Output: No

Task: State the result this test recorded for `C=C(C)[C@@H]1CCc2c(c(C)cc(O)c(=O)c2O)C1` .
Output: Yes

Task: State the result this test recorded for COC(=O)CC(c1ccccc1)C(C#N)(OP1(=O)OC(c2ccccc2)C(C)N1C)c1ccccc1 (stereo unspecified) .
Output: No

Task: State the result this test recorded for COC(=O)C12C3C4C5(C(=O)OC)C(C1C35C(=O)N(C(C)C)C(C)C)C42C(=O)N(C(C)C)C(C)C (stereo unspecified) .
Output: No

###

- System: SK-MEL-28
- Measurement notes: NCI tumour cell line growth inhibition, 48 h
The source made the active and inactive calls. Cut-off read from the data, not from the text of the source: active = GI50 up to about 1.1 µM and inactive = higher.
Readout: GI50

Task: Enter reported GI50 observed with SK-MEL-28 for `Fc1c(F)c(C(F)(F)F)c(F)c(F)c1N/N=C\c1c[nH]c2ccccc12`
Output: 6.82 µM (inactive)

Task: Enter reported GI50 observed with SK-MEL-28 for `O=C(O)CN1C(=O)CN=C(c2ccccn2)c2cc(Cl)ccc21`
Output: > 100 µM (inactive)

Task: Enter reported GI50 observed with SK-MEL-28 for `N/C(=N\OC(=O)NC(Cl)=C(Cl)Cl)c1cc(C(F)(F)F)cc(C(F)(F)F)c1`
Output: 17.4 µM (inactive)

Task: Enter reported GI50 observed with SK-MEL-28 for `COc1cc([C@H]2CC(=O)C[C@H](c3cc(OC)c(OC)c(OC)c3)C23C(=O)c2ccccc2C3=O)cc(OC)c1OC`
Output: > 100 µM (inactive)

Task: Enter reported GI50 observed with SK-MEL-28 for `CC(C)(C)c1c(C(C)(C)C)c(=O)c1=O`
Output: > 100 µM (inactive)

Task: Enter reported GI50 observed with SK-MEL-28 for `C=C(C)[C@@H]1CCc2c(c(C)cc(O)c(=O)c2O)C1`
Output: 4.63 µM (inactive)

###

- Tested on: SNB-19
- Measurement notes: NCI tumour cell line growth inhibition, 48 h
The source made the active and inactive calls. Cut-off read from the data, not from the text of the source: active = GI50 up to about 1.1 µM and inactive = higher. Numbered stars: 1 amine (or outer) side, 2 acyl side, 3 side chain; on linkers, the order of the positions; unused ones are H or OH. Bridge positions count the residues as written; N and C are the ends. Square brackets hold non-standard residues; d marks the D form. Peptide text beside a SMILES is read from it. X58 = COc1c(N[*:1])cccc1C(=O)O[C@H](C(=O)[C@H](C)C(=O)[*:2])C(C)C; X57 = CC(C)C[C@H](C(=O)[*:2])C(C)C(=O)C1CCCN1[*:1]; NMeY = CN[C@@H](Cc1ccc(O)cc1)C(=O)O; Lac = C[C@H](O)C(=O)O
Give one outcome, nothing more. List: active, inactive

Task: State the result this test recorded for `Cc1ccc(S(=O)(=O)N/N=c2/sc3ccccc3n2C)cc1` .
Output: inactive

Task: State the result this test recorded for CC(C)(O)C1COC2=C1C(=O)c1ccccc1C2=O (centres undefined) .
Output: inactive

Task: State the result this test recorded for `CCN(CC)CCNc1ccc2nnn3c4ccc([N+](=O)[O-])cc4c(=O)c1c23` .
Output: inactive

Task: State the result this test recorded for `C[C@]12CC[C@H]3[C@@H](CCC4=CC(=O)CC[C@@]43C)[C@]1(O)CC[C@]2(O)C(=O)CO` .
Output: inactive

Task: State the result this test recorded for CN1C(c2ccccc2)CC(=O)C(N)C1c1ccccc1 (centres undefined) .
Output: inactive

Task: State the result this test recorded for OC1NC2Nc3ccccc3NC2NC1O (centres undefined) .
Output: inactive

Task: State the result this test recorded for `CC(=O)NCCc1c[nH]c2ccc(Cl)cc12` .
Output: inactive

Task: State the result this test recorded for C[C@]12C=CC(=O)C=C1CC[C@@H]1[C@@H]2CC[C@]2(C)OC(=O)CC[C@@H]12 [TESTOLACTONE] .
Output: inactive

Task: State the result this test recorded for `Nc1ncnc2c1sc1nc3ccccc3n12` .
Output: inactive

Task: State the result this test recorded for `COc1cc(CNC(=O)[C@H](Cc2ccc(O)cn2)NC(C)=O)cc(OC)c1` .
Output: inactive

Task: State the result this test recorded for COC(=O)C1CN=CN1CCc1ccccc1 (centres undefined) .
Output: inactive

Task: State the result this test recorded for `Cc1c2cccc-2c(N(C)C)cc2c1[nH]c1ccccc12` .
Output: inactive

Task: State the result this test recorded for `CCOC(C[C@H](O)[C@H]1COC(=S)S1)OCC` .
Output: inactive

Task: State the result this test recorded for `S=C(Nc1ccc2c(c1)oc1ccccc12)c1cccs1` .
Output: inactive

Task: State the result this test recorded for `COc1cc2c(Cc3cc(OCc4ccccc4)ccc3N)nccc2c(OC)c1OC` .
Output: inactive

Task: State the result this test recorded for `CO[C@]12CCC(=O)N1C=Cc1c2[nH]c2ccccc12` .
Output: inactive

Task: State the result this test recorded for COc1ccc(/N=N/C(=O)NC(CC(C)C)C(=O)NC(CC(C)C)C(=O)O)cc1 (centres undefined) .
Output: inactive

Task: State the result this test recorded for C=C1C(=O)O[C@@H]2[C@H]1C[C@@H](O)[C@H](C)[C@@](O)(C(=O)/C=C/C)[C@H]2OC(=O)C(C)CC (some centres undefined) .
Output: inactive

Task: State the result this test recorded for CC(C)C1NC(=O)[C@H](C)OC(=O)[C@@H](C(C)C)NC(=O)[C@@H](C)OC(=O)C(C(C)C)NC(=O)[C@H](C)OC1=O (some centres undefined) .
Output: inactive

Task: State the result this test recorded for Cn1c2ccccc2c(=O)c2c(O)cc3c(c21)C1OCC(C)(O)C1O3 (centres undefined) .
Output: inactive

Task: State the result this test recorded for CC(C)(C)[Si](C)(C)OC1/C(=C/C#N)C(n2ccc(=O)[nH]c2=O)OC1CO (centres undefined) .
Output: inactive

Task: State the result this test recorded for `c1ccc(CSC(SCc2ccccc2)c2ccc3c(c2)OCO3)cc1` .
Output: inactive

Task: State the result this test recorded for `O=C(N/N=C\C(F)(F)F)c1ccncc1` .
Output: inactive

Task: State the result this test recorded for `Nc1ccc(C(=O)N/C(=C\c2cccc([N+](=O)[O-])c2)c2nc3c(O)nc(S)nc3[nH]2)cc1` .
Output: inactive

Task: State the result this test recorded for `O=C(NNC(=O)c1ccccc1Cl)c1ccccc1O` .
Output: inactive

Task: State the result this test recorded for `CCCCCCc1ccc(C(=O)NO)cc1` .
Output: inactive

Task: State the result this test recorded for COC(=O)/C=C/c1ccc2c(c1)CC1(C2)Cc2cc3c(cc2C1=O)CCC3 (centres undefined) .
Output: inactive

Task: State the result this test recorded for COc1ccc(C[C@H]2C(=O)O[C@H](C)[C@H](NC(=O)[C@@H](CC(C)C)C(C)C(=O)C3CCCN3C(=O)[C@H](C)O)C(=O)Nc3cccc(c3OC)C(=O)O[C@@H](C(C)C)C(=O)[C@H](C)C(=O)N[C@@H](CC(C)C)C(=O)N3CCC[C@H]3C(=O)N2C)cc1 (some centres undefined) (H-[Lac][X57]T[X58]LP[NMeY](Me); ester 3-C) .
Output: inactive

Task: State the result this test recorded for CC(C)(C)[Si](OC1CC(n2cnc3c(N)ncnc32)OC1CO)(c1ccccc1)c1ccccc1 (centres undefined) .
Output: inactive

Task: State the result this test recorded for `c1cc2nnsc2s1` .
Output: inactive

Task: State the result this test recorded for `Nc1ccccc1C(=O)NC(=O)Nc1ccc(Oc2ncc(Br)cn2)c(Cl)c1` .
Output: active

Task: State the result this test recorded for CCCCN(CC)CC(C(C)=O)c1c(O)c2ccccc2oc1=O (centres undefined) .
Output: inactive

Task: State the result this test recorded for `CCOc1cc(NC(C)=O)ccc1C(=O)NNC(=O)c1ccccc1OC(C)=O` .
Output: inactive

Task: State the result this test recorded for Cc1cn(C2CC(O)C(COP(=O)(O)OC3CC(n4c[n+]([BH2-]C#N)c5c(=O)[nH]c(N)nc54)OC3CO)O2)c(=O)[nH]c1=O (centres undefined) .
Output: inactive

Task: State the result this test recorded for `CSc1ccc2c(cc1=O)[C@@H](NC(=O)c1ccc(N)cc1)CCc1cc(O)c(O)c(O)c1-2` .
Output: inactive

Task: State the result this test recorded for `COc1ccc2c(c1)CCN1C3=C(CCC3)C(=O)C[C@@H]21` .
Output: inactive

Task: State the result this test recorded for `C[C@@H]1C[C@](O)([C@@H](C)Cl)C(=O)O[C@@H]2CCN3CC=C(COC(=O)[C@]1(C)O)[C@H]23` .
Output: inactive

Task: State the result this test recorded for `CCCCCc1nnc(NS(=O)(=O)c2ccc(NC(=O)OCC(C)C)cc2)s1` .
Output: inactive

Task: State the result this test recorded for CC12CCC(=O)N1c1cncnc1N2 (centres undefined) .
Output: inactive
